The values you see were collected from patent US20220370416A1.

- System Under Test: HiBit-KRAS^G12C (Homo sapiens, UniProt P01116, G12C)
- Sequence (P01116 1-186 isoform P01116-2 G12C limits assumed): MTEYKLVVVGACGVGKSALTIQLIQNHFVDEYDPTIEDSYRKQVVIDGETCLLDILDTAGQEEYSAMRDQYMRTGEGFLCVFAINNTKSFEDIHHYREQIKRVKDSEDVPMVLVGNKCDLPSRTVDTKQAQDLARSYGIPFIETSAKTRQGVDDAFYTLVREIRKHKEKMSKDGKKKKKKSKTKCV
- Protocol Details: HiBit degradation assay in SW1573 HiBit-KRas^G12C cells
- Assay type: cell-based
- Parameters: expressed in transfected cells; host or cells: SW1573 (clone E6), modified pcDNA3.1 vector, TK promoter
- Condition Notes: SW1573, SW1573 HiBit-KRas^G12C, 0.1% DMSO, 24 hours; read-out: KRas^G12C-HiBit (SW1573; 0.1% DMSO) Dmax**
- Procedure: Reagents. SW1573 (CRL-2170) and MiaPaCa-2 (CRL-1420) cells were purchased from ATCC. Both cell lines are […] for the G12C mutation in KRAS. […] Either SW1573 HiBit-KRas^G12C or MiaPaCa-2 HiBit-KRas^G12C cells were plated at 9000 cells/well in a 384 well plate (Corning #3770). […] Plates were then allowed to equilibrate to room temperature and fluorescence was measured using a Perkin-Elmer EnVision. […]
Listed next: entries and their corresponding Dmax.
Endpoint Name: Dmax

>>> experimental_value("C=CC(=O)N1CCN(c2nc(O[C@H](C)CN3CCC(OCCOCC(=O)N[C@H](C(=O)N4C[C@H](O)C[C@H]4C(=O)N[C@@H](C)c4ccc(-c5scnc5C)cc4)C(C)(C)C)CC3)nc3c(F)c(-c4c(O)cccc4F)c(Cl)cc23)CC1")
"< 35%"
>>> experimental_value("C=CC(=O)N1CCN(c2nc(O[C@H](C)CN3CCC(OCCOCC(=O)N[C@H](C(=O)N4C[C@H](O)C[C@H]4C(=O)N[C@@H](C)c4ccc(-c5scnc5C)cc4)C(C)(C)C)CC3)nc3c(Oc4c(Cl)c(F)cc5[nH]ncc45)nc(Cl)cc23)CC1")
"35 to 70%"
>>> experimental_value("C=CC(=O)N1CCN(c2nc(OCCN3CCC(COCC(=O)N[C@H](C(=O)N4C[C@H](O)C[C@H]4C(=O)N[C@@H](C)c4ccc(-c5scnc5C)cc4)C(C)(C)C)CC3)nc3c(F)c(-c4cc(O)cc5ccccc45)c(Cl)cc23)CC1")
"35 to 70%"
>>> experimental_value("C=CC(=O)N1CCN(c2nc(O[C@H](C)CN3CCC(OCCOCC(=O)N[C@H](C(=O)N4C[C@H](O)C[C@H]4C(=O)N[C@@H](C)c4ccc(-c5scnc5C)cc4)C(C)(C)C)CC3)nc3c2CCN(c2cc(O)cc4ccccc24)C3)C[C@@H]1CC#N")
"35 to 70%"
>>> experimental_value("C=CC(=O)N1CCN(c2nc(OCCN3CCC(OCCOCC(=O)N[C@H](C(=O)N4C[C@H](O)C[C@H]4C(=O)N[C@@H](C)c4ccc(-c5scnc5C)cc4)C(C)(C)C)CC3)nc3c2CCN(c2cccc4cccc(C)c24)C3)C[C@@H]1CC#N")
"< 35%"
>>> experimental_value("C=CC(=O)N1CCN(c2nc(OCCN3CCC(OCCOc4cc([C@@H](C(=O)N5C[C@H](O)C[C@H]5C(=O)N[C@@H](C)c5ccc(-c6scnc6C)cc5)C(C)C)on4)CC3)nc3c(F)c(-c4cc(O)cc5ccccc45)c(Cl)cc23)C[C@@H]1CC#N")
"< 35%"
>>> experimental_value("C=CC(=O)N1CCN(c2nc(O[C@H](C)CN3CCC(OCC(=O)N[C@H](C(=O)N4C[C@H](O)C[C@H]4C(=O)N[C@@H](C)c4ccc(-c5scnc5C)cc4)C(C)(C)C)CC3)nc3c(F)c(-c4cc(O)cc5ccccc45)c(Cl)cc23)CC1")
"35 to 70%"
>>> experimental_value("C=CC(=O)N1CCN(c2nc(OCCN3CCC(OCCOCC(=O)N[C@H](C(=O)N4C[C@H](O)C[C@H]4C(=O)N[C@@H](C)c4ccc(-c5scnc5C)cc4)C(C)(C)C)CC3)nc3c(F)c(-c4cc(O)cc5ccccc45)c(Cl)cc23)CC1")
"35 to 70%"
